Where do these numbers come from? They come from patent US20230416363A1.

# Study Target: T1, human PD-1 expressed on cells (human, UniProt Q15116 25-288)
# T1 construct: whole, on cells
# T1 sequence (Q15116 25-288): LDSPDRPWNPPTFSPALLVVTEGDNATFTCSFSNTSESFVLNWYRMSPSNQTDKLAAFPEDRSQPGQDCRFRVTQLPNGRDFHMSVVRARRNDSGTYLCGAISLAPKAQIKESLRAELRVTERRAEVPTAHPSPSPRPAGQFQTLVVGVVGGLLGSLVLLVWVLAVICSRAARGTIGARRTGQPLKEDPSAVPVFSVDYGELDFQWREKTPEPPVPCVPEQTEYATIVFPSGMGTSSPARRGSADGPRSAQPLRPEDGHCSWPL
# Assay Comment: flow cytometry, activated PBMC donor two
pEC50: −log10 of the molar value.

>  <Binder>
33C4 (antibody, V domains shown, also called 780_39) VH: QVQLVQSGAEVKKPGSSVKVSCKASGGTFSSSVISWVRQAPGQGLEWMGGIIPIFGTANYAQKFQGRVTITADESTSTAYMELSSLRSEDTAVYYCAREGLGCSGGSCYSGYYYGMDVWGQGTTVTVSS VL: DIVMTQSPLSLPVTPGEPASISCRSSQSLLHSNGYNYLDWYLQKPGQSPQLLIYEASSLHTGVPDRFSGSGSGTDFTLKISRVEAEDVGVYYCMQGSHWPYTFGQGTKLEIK

>  <pEC50>
10.30

$$$$
>  <Binder>
31B1 (antibody, V domains shown, also called 780_38; 33B1 and 31B2 (apparent misprints)) VH: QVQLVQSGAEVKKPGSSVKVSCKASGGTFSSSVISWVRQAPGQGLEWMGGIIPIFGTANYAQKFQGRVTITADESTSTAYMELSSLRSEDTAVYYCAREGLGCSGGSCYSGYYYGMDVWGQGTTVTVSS VL: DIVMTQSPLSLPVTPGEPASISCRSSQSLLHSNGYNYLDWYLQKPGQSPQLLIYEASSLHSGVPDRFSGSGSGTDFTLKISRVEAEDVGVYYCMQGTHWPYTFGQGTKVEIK

>  <pEC50>
10.60

$$$$
>  <Binder>
38A6 (antibody, V domains shown, also called 780_46) VH: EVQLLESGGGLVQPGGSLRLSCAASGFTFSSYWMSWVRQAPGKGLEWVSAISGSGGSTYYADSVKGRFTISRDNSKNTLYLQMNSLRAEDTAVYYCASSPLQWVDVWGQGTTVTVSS VL: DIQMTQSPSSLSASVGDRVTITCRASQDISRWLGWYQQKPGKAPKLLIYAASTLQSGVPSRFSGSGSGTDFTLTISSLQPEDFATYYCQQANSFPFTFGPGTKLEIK

>  <pEC50>
9.77

$$$$
